Tested on: MDCK cells
Experiment: Screening phospholipidosis assay (LipidTOX Red / NucBlue Live fluorescence ratio)
Settings: LipidTOX Red to NucBlue Live fluorescence ratio, 24 h, 15 μM
Think of 0.4 as a floor: if Ratio (15 μM) stands on it or above, it is met; beneath it, not met.

{"compound": "C[C@]12CC[C@@H]3c4ccc(O)cc4C[C@@H](CCCCCCCCC[S+]([O-])CCCC(F)(F)C(F)(F)F)[C@H]3[C@@H]1CC[C@@H]2O (stereo partly shown) [Fulvestrant]", "cat": "not met"}
{"compound": "CCOC(=O)COc1ccc2c(C)c(CCN(CC)CC)c(=O)oc2c1Cl [Cloricromen]", "cat": "not met"}
{"compound": "Oc1ncnc2[nH]ncc12 [Allopurinol]", "cat": "not met"}
{"compound": "CC(C)Cn1cnc2c(N)nc3ccccc3c21 [Imiquimod]", "cat": "not met"}
{"compound": "CN(Cc1ccc(C(C)(C)C)cc1)Cc1cccc2ccccc12 [Butenafine]", "cat": "not met"}
{"compound": "O=C1NC(=O)C(c2ccccc2)(c2ccccc2)N1 [Phenytoin]", "cat": "not met"}
{"compound": "NC(=O)C1(N2CCCCC2)CCN(CCCC(=O)c2ccc(F)cc2)CC1 [Pipamperone]", "cat": "not met"}
{"compound": "CCCCCCCCNC(C)C(O)c1ccc(SC(C)C)cc1 (stereo not shown) [Suloctidil]", "cat": "met"}
{"compound": "NCCc1cc(O)c(O)cc1O [6-Hydroxydopamine]", "cat": "met"}
{"compound": "O=C1NCC2(CCN(CCc3ccccc3)CC2)O1 [Fenspiride]", "cat": "not met"}
{"compound": "Cl.NCCc1ccc(O)c(O)c1 [3-Hydroxytyramine hydrochloride]", "cat": "met"}
{"compound": "NNc1nncc2ccccc12 [Hydralazine]", "cat": "met"}
{"compound": "COc1cc(C(=O)OCCCN2CCCN(CCCOC(=O)c3cc(OC)c(OC)c(OC)c3)CC2)cc(OC)c1OC [Dilazep]", "cat": "met"}
{"compound": "COc1ccc(C(=O)Nc2ccccc2CCC2CCCCN2C)cc1 (stereo not shown) [Encainide]", "cat": "not met"}
{"compound": "COCC(=O)O[C@]1(CCN(C)CCCc2nc3ccccc3[nH]2)CCc2cc(F)ccc2[C@@H]1C(C)C [Mibefradil]", "cat": "met"}
{"compound": "CCN1CCCC1CNC(=O)c1cc(S(=O)(=O)CC)c(N)cc1OC (stereo not shown) [Amisulpride]", "cat": "not met"}
{"compound": "COc1ccc2[nH]cc(CCNC(C)=O)c2c1 [Melatonin]", "cat": "not met"}
{"compound": "CC(COc1ccccc1)NC(C)C(O)c1ccc(O)cc1 (stereo not shown) [Isoxsuprine]", "cat": "met"}
{"compound": "CC(=O)O[C@H]1C[C@@]2(C)[C@@H](C[C@@H](O)[C@H]3[C@@]4(C)CC[C@@H](O)[C@@H](C)[C@@H]4CC[C@@]32C)/C1=C(\\CCC=C(C)C)C(=O)O [Fuscidic acid]", "cat": "not met"}

---

Molecular target: recombinant mouse LPLA2 (PLA2G15) (Mus musculus, UniProt Q8VEB4)
Construct: purchased Proteos Inc. (Kalamazoo, MI)
Assay: Transacylase activity of LPLA2 (1-O-acyl-N-acetylsphingosine synthase, cell-free liposome assay)
Format: biochemical
Conditions: LPLA2 IC50, 1-O-acyl N-acetylsphingosine synthase activity, pH 4.5, DOPC/sulfatide liposomes
A collection of compounds and their measured IC50

{"molSmiles": "COC(=O)[C@@H]1[C@H]2C[C@H]3c4[nH]c5ccccc5c4CCN3C[C@@H]2CC[C@@H]1O", "IC50 / µM": 200}
{"molSmiles": "CCc1oc2ccccc2c1C(=O)c1cc(Br)c(O)c(Br)c1", "IC50 / µM": 3.8}
{"molSmiles": "OCCN1CCN(CCCN2c3ccccc3Sc3ccc(Cl)cc32)CC1", "IC50 / µM": 3.92}

---

Biological target: LPLA2 (Mus musculus, UniProt Q8VEB4)
Construct: purchased Proteos Inc. (Kalamazoo, MI)
Test: LPLA2 thermal stability measurement (SYPRO Orange Tm)
Format: binding
Details: N=3 ± SD
Returns true (1) if the recorded (ΔTm)c-(ΔTm)d, difference in melting temperature of LPLA2 alone or in the presence of drug is greater than or equal to 0 °C, and false (0) otherwise.

{"molecule": "Nc1c(Br)cc(Br)cc1CN[C@H]1CC[C@H](O)CC1", "cat": "true (1)"}
{"molecule": "OC[C@@H](O)[C@@H](O)[C@H](O)[C@H](O)CO [Mannitol, (2R,3R,4R,5R)-hexane-1,2,3,4,5,6-hexol]", "cat": "true (1)"}
{"molecule": "COC(=O)C1=C(C)NC(C)=C(C(=O)OC(C)(C)CN(C)CCC(c2ccccc2)c2ccccc2)C1c1cccc([N+](=O)[O-])c1 (stereo not drawn)", "cat": "true (1)"}
{"molecule": "CC(COc1ccccc1)NC(C)C(O)c1ccc(O)cc1 (stereo not drawn)", "cat": "true (1)"}
{"molecule": "Clc1cccc(Cl)c1N=C1NCCN1", "cat": "false (0)"}
{"molecule": "COc1ccc(C2CNC(=O)C2)cc1OC1CCCC1 (stereo not drawn)", "cat": "false (0)"}
{"molecule": "CC1(C)[C@@H](O)CC[C@]2(C)[C@H]3C(=O)C=C4[C@@H]5C[C@@](C)(C(=O)O)CC[C@]5(C)CC[C@@]4(C)[C@]3(C)CC[C@@H]12", "cat": "true (1)"}
{"molecule": "O=c1ccn([C@@H]2O[C@H](CO)[C@@H](O)[C@H]2O)c(=O)[nH]1", "cat": "false (0)"}
{"molecule": "NC(=O)N1c2ccccc2C=Cc2ccccc21 [Carbamazepine]", "cat": "false (0)"}
{"molecule": "CC[C@]1(O)C[C@@H]2CN(CCc3c([nH]c4ccccc34)[C@@](C(=O)OC)(c3cc4c(cc3OC)N(C)[C@H]3[C@@](O)(C(=O)OC)[C@H](OC(C)=O)[C@]5(CC)C=CCN6CC[C@]43[C@@H]65)C2)C1", "cat": "false (0)"}
{"molecule": "CCOc1cc(CC(=O)NC(CC(C)C)c2ccccc2N2CCCCC2)ccc1C(=O)O (stereo not drawn) [Repaglinide]", "cat": "false (0)"}
{"molecule": "NC(=O)C1(N2CCCCC2)CCN(CCCC(=O)c2ccc(F)cc2)CC1", "cat": "true (1)"}
{"molecule": "NNc1nncc2ccccc12 [Hydralazine]", "cat": "true (1)"}
{"molecule": "CN(C)CCC(c1ccc(Cl)cc1)c1ccccn1 (stereo not drawn)", "cat": "true (1)"}
{"molecule": "Cc1nc2sccn2c(=O)c1CCN1CCC(=C(c2ccc(F)cc2)c2ccc(F)cc2)CC1", "cat": "false (0)"}
{"molecule": "CC(CN(C)C)CN1c2ccccc2CCc2ccccc21 (stereo not drawn)", "cat": "true (1)"}
{"molecule": "CC12CC3CC(C)(C1)CC(N)(C3)C2.Cl [Memantine]", "cat": "true (1)"}
{"molecule": "COc1ccc2[nH]cc(CCNC(C)=O)c2c1", "cat": "true (1)"}
{"molecule": "OC1(c2ccc(Cl)c(C(F)(F)F)c2)CCN(CCCC(c2ccc(F)cc2)c2ccc(F)cc2)CC1", "cat": "true (1)"}
{"molecule": "CCN(CC)CCc1nc(-c2ccccc2)no1", "cat": "false (0)"}
{"molecule": "CC(C)C[C@H](N)C(=O)O", "cat": "true (1)"}
{"molecule": "OCCOCCN1CCN(C(c2ccccc2)c2ccc(Cl)cc2)CC1 (stereo not drawn) [Hydroxyzine]", "cat": "false (0)"}
{"molecule": "CC(=O)O[C@H]1C[C@@]2(C)[C@@H](C[C@@H](O)[C@H]3[C@@]4(C)CC[C@@H](O)[C@@H](C)[C@@H]4CC[C@@]32C)/C1=C(\\CCC=C(C)C)C(=O)O", "cat": "true (1)"}
{"molecule": "CC(C)(C#N)c1cc(Cn2cncn2)cc(C(C)(C)C#N)c1", "cat": "false (0)"}
{"molecule": "Oc1ncnc2[nH]ncc12", "cat": "true (1)"}

---

Target: recombinant mouse LPLA2 (PLA2G15) (Mus musculus)
Construct: purchased Proteos Inc. (Kalamazoo, MI)
Sequence (Q8VEB4 34-412): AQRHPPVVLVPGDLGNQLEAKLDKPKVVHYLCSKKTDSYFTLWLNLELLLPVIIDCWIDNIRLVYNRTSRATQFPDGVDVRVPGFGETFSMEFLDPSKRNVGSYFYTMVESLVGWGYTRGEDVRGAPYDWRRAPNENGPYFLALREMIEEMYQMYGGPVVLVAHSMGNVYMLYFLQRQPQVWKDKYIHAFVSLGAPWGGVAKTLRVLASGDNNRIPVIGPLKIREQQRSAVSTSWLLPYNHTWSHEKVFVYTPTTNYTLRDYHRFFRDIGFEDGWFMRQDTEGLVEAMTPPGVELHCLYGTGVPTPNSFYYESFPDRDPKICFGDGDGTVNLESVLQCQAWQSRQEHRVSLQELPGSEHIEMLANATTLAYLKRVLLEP
Experiment: Transacylase activity of LPLA2 (1-O-acyl-N-acetylsphingosine synthase, cell-free liposome assay)
Type: biochemical
Settings: acyl transferase activity

{"molecule": "CCN1CCCC1CNC(=O)c1cc(S(N)(=O)=O)ccc1OC (stereo not shown) [Sulpiride]", "LPLA2 inhibition (in words)": "no inhibitory activity"}
{"molecule": "CC(C)NCC(O)COc1ccc(CCOCC2CC2)cc1 (stereo not shown)", "LPLA2 inhibition (in words)": "no inhibitory activity"}
